Experiment: Cytotoxicity against human SF295 cells after 72 hrs by MTT assay
Type: functional, cell-based, SF-295
Details: Homo sapiens, SF-295, 72 h
pIC50: −log10 of the molar value.

# COMPOUND, MEASUREMENT QUALIFIER, pIC50
measured = [
    ("CC(C)(C)OC(=O)NCCNC(C1=C(O)C(=O)c2ccccc2C1=O)c1ccccc1 (stereo not given)", "<", 4.40),
    ("O=C1C(O)=C(C(NCCCCl)c2ccccn2)C(=O)c2ccccc21 (stereo not given)", "<", 4.40),
    ("CC(C)(C)OC(=O)NCCNC(C1=C(O)C(=O)c2ccccc2C1=O)c1ccc(Cl)cc1Cl (stereo not given)", "<", 4.40),
    ("CCCCCCCNC(C1=C(O)C(=O)c2ccccc2C1=O)c1cccc(O)c1 (stereo not given)", "<", 4.40),
    ("CC(C)(C)OC(=O)NCCCNC(C1=C(O)C(=O)c2ccccc2C1=O)c1ccccc1O (stereo not given)", "=", 4.59),
    ("CCCCCCCNC(C1=C(O)C(=O)c2ccccc2C1=O)c1ccccc1 (stereo not given)", "<", 4.40),
    ("CCCCNC(C1=C(O)C(=O)c2ccccc2C1=O)c1ccccc1O (stereo not given)", "=", 4.48),
    ("O=C1C(O)=C(C(NCCCCl)c2ccccc2)C(=O)c2ccccc21 (stereo not given)", "<", 4.40),
    ("CCCCCCCNC(C1=C(O)C(=O)c2ccccc2C1=O)c1ccccn1 (stereo not given)", "=", 6.00),
    ("O=C1C(O)=C(C(NCc2ccccc2)c2ccccn2)C(=O)c2ccccc21 (stereo not given)", "=", 5.89),
]
